B1: ZNF277 (parent)
chain: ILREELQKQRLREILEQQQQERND

- Variants of: B1
- experiment_summary: protein stability index of a GFP-peptide fusion (GPS, HEK-293T) (PSI 1-6); higher = more stable;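 further: lentivirally expressed fusions sorted by FACS into six bins by GFP to DsRed ratio, PSI derived from sequencing read proportions per bin multiplied by bin number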
- experimental_setup: c terminus: a fixed tail appended
Measured protein stability index of individual entries
Lab note: jot the number down without any unit.

[[record]]
variant_string = "Q17T"
result = 4.16

[[record]]
variant_string = "Q7W"
result = 2.37

[[record]]
variant_string = "I14D"
result = 5.07

[[record]]
variant_string = "R12A"
result = 4.73

[[record]]
variant_string = "Q19A"
result = 4.13


*Q* Input `L6W` , output reported protein stability index.
*A* 5.58

*Q* Input `L6E` , output reported protein stability index.
*A* 5.19

*Q* Input `E4N` , output reported protein stability index.
*A* 4.16

*Q* Input `I14G` , output reported protein stability index.
*A* 4.74

*Q* Input `E16G` , output reported protein stability index.
*A* 3.51

*Q* Input `E21S` , output reported protein stability index.
*A* 4.41

*Q* Input `E13V` , output reported protein stability index.
*A* 4.06

*Q* Input `I1W` , output reported protein stability index.
*A* 4.19

*Q* Input `R22H` , output reported protein stability index.
*A* 4.4

*Q* Input `R22V` , output reported protein stability index.
*A* 3.53

*Q* Input `E4F` , output reported protein stability index.
*A* 2.99

*Q* Input `E5D` , output reported protein stability index.
*A* 4.76

*Q* Input `L11K` , output reported protein stability index.
*A* 4.31

*Q* Input `I1E` , output reported protein stability index.
*A* 4.93

*Q* Input `L15P` , output reported protein stability index.
*A* 4.54

*Q* Input `Q20V` , output reported protein stability index.
*A* 3.74

*Q* Input `I1A` , output reported protein stability index.
*A* 4.59
